# system.under.test: SARS-CoV-2 RBD (SARS-CoV-2, UniProt P0DTC2)
# procedure.details: ELISA
property.label: EC50 (ng/mL)
Report as a plain number; the unit ng/mL is understood.

Q. Given the binder C134 (antibody, V domains shown) VH: EVQLLESGGGLVQPGGSLRLSCAASGFTFSNYAMSWVRQAPGKGLEWVSAISGSDGSTYYAGSVKGRFTISRDNSKNTLYLQMNSLRAEDTAVYYCAKDPLITGPTYQYFHYWGQGTLVTVSS VL: SYELTQPPSVSVAPGKTARITCGGNNIGSKSVHWYQQKPGQAPVLVIYYDSDRPSGIPERFSGSNSGNTATLTISRVEAGDEAEYHCQVWDSSSDRPGVVFGGGTKLTVL , what is its reported EC50?
A. 1.57

Attribution: patent US11634477
